Data credit: patent US20110268818A1

target: NGAL (Homo sapiens, UniProt P80188); construct: made in house; host or cells: E. coli BL-21; assay: NGAL:siderophore:iron binding assay (retention on 10 kDa filter); details: apoNGAL 10 μM, 55Fe, compound 10 μM, pH 7.4, washed on 10 kDa filter
Sequence (P80188 21-198): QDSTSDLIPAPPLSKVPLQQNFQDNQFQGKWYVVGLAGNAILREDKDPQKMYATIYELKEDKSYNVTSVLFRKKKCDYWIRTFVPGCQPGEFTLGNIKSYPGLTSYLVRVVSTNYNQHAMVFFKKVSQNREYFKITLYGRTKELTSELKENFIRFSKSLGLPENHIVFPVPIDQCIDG
REPORTED_ENDPOINT: NGAL: Chelator: Fe % Retention (%)

Completed entries (count: 5):
NCCc1cc(O)c(O)cc1O [6-Hydroxydopamine]    4
Cc1ccc(O)c(O)c1    29
Nc1nc2[nH]cc(CNc3ccc(C(=O)N[C@@H](CCC(=O)O)C(=O)O)cc3)nc-2c(=O)n1    3
COc1cc(/C=C/C(=O)O)ccc1O    3
O=C1CC(C(=O)O)NC(=O)N1 (racemic)    7

I: O=c1c(O)c(-c2cc(O)c(O)c(O)c2)oc2cc(O)cc(O)c12
II: Oc1cccc(O)c1O
III: O=S(=O)([O-])Oc1ccccc1O.[Na+]
IV: Cc1cc2nc3c(=O)[nH]c(=O)nc-3n(C[C@H](O)[C@H](O)[C@H](O)COP(=O)(O)OP(=O)(O)OC[C@H]3O[C@@H](n4cnc5c(N)ncnc54)[C@H](O)[C@@H]3O)c2cc1C
V: Nc1c(O)cccc1C(=O)O [3- Hydroxyanthranilic acid]
Query block: Order each entry by recorded NGAL: Chelator: Fe % Retention, climbing from the minimum. List labels; respect the requested ordering.
Result block: III, IV, V, I, II
(III: 4%, IV: 6%, V: 10%, I: 28%, II: 73%)

A: O=c1oc2c(O)c(O)cc3c(=O)oc4c(O)c(O)cc1c4c23
B: O=C(O)Cc1cc(O)ccc1O
C: N[C@@H](Cc1ccc(O)c(O)c1)C(=O)O [Dihydroxyphenyl alanine (L-DOPA)]
Query block: Ascending by NGAL: Chelator: Fe % Retention, please. // list labels; follow requested order
Result block: B, C, A
